Target: EGFR (UniProt P00533)
Sequence (P00533 whole entry, looked up): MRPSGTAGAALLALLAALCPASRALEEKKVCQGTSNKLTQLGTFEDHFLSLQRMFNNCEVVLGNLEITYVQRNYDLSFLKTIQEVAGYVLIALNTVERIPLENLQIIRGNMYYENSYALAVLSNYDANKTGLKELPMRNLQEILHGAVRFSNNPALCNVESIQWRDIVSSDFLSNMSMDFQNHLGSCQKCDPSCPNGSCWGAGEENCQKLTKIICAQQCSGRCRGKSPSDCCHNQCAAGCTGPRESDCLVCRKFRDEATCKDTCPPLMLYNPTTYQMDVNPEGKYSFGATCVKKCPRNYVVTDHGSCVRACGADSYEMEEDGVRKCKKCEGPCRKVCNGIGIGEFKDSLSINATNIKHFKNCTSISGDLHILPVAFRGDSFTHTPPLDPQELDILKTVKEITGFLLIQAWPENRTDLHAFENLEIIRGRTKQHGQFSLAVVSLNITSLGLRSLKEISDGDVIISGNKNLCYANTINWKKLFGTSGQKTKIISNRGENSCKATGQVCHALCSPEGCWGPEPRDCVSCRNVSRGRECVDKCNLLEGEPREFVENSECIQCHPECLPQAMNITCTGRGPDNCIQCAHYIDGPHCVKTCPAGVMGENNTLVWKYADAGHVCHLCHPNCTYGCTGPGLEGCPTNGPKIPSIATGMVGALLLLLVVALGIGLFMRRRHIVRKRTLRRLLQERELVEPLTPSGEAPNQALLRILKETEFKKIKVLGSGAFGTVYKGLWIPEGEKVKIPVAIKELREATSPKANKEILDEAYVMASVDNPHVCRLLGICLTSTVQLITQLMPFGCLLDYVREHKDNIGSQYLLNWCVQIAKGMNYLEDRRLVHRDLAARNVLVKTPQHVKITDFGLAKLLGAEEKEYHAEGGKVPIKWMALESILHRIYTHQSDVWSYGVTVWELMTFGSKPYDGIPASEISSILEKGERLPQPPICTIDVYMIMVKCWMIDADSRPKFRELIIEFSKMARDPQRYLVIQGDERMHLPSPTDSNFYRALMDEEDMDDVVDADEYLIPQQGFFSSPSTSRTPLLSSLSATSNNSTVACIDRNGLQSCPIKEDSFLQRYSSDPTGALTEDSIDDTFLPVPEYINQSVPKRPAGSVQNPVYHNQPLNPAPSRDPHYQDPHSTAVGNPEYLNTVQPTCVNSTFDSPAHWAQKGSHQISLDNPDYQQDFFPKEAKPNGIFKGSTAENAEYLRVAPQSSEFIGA
pIC50: −log10 of the molar value.
TEST_READOUT: pIC50

record_smiles=c1ccc2c(c1)CCc1c-2n[nH]c1-c1ccncc1 test_readout=pIC50 result="< 4.30"

###

This document collects IC50 values reported for EGFR (UniProt P00533).
TEST_READOUT: IC50

record_smiles=CNC(=O)N1CCN(Cc2ccnc(Nc3ncc(C#N)s3)c2C)CC1 result="> 19.2 µM"
record_smiles=CNC(=O)N1CCN(Cc2ccnc(Nc3ncc(C#N)s3)c2)CC1 result="> 19.2 µM"

###

Below is a list of entries, each paired with its recorded IC50 value.
Molecular target: PIK3CB (Human)
Assay: Cell-Based Assay
Conditions: mda-468
TEST_READOUT: IC50 (µM)

record_smiles=C[C@H](Nc1ncnc(N)c1C#N)c1nc2cccc(C#N)c2nc1-c1ccccc1S(C)(=O)=O test_readout=IC50 readout_unit=µM value_relation_sign=> result=10
record_smiles=C[C@H](Nc1ncnc(N)c1C#N)c1nc2ccc(F)cc2nc1-c1ccccn1 test_readout=IC50 readout_unit=µM value_relation_sign=> result=10
record_smiles=C[C@H](Nc1ncnc(N)c1C#N)c1cc2cccc(F)c2nc1-c1ccccc1S(C)(=O)=O test_readout=IC50 readout_unit=µM value_relation_sign== result=5.97
record_smiles=C[C@H](Nc1ncnc(N)c1C#N)c1cc2ccc(F)cc2nc1-c1ccccn1 test_readout=IC50 readout_unit=µM value_relation_sign== result=1.95
record_smiles=C[C@H](Nc1ncnc(N)c1C#N)c1cc2ccc(F)cc2nc1-c1ccccc1S(C)(=O)=O test_readout=IC50 readout_unit=µM value_relation_sign=> result=10
record_smiles=C[C@H](Nc1ncnc(N)c1C#N)c1cc2ccc(F)cc2nc1-c1cccc(F)c1 test_readout=IC50 readout_unit=µM value_relation_sign== result=3.8
record_smiles=C[C@H](Nc1ncnc(N)c1C#N)c1nc2cccc(Cl)c2nc1-c1ccccc1S(C)(=O)=O test_readout=IC50 readout_unit=µM value_relation_sign=> result=10

###

Biological target: UniProt:P42336
Experiment: Inhibition of PIK3CA Kinase Activity
TEST_READOUT: IC50 (nM)

record_smiles=O=C(Nc1ccc(C(=O)NCCN2CCCC2)cc1)Nc1ccc(-c2nc(O[C@H]3CCOC3)nc(N3CCOCC3)n2)cc1 test_readout=IC50 value_relation_sign== result=1.4
record_smiles=COc1ccc2c(c1)c(C=C1Oc3cc(O)cc(O)c3C1=O)c(C)n2CCN1CCN(CCO)CC1 test_readout=IC50 value_relation_sign== result=4
record_smiles=COc1ncc(-c2nn3c(-c4ccnnc4)cnc3s2)cc1NS(=O)(=O)c1ccc(F)cc1F test_readout=IC50 value_relation_sign=< result=100
record_smiles=CS(=O)(=O)Nc1cccc(-c2cc(OCc3ccccn3)nc(N3CCOCC3)n2)c1 test_readout=IC50 value_relation_sign=> result=10000
record_smiles=CN(C)CC=CC(=O)Nc1cccc(-c2cccc(Oc3cc(=O)[nH]c4ccccc34)c2)c1 test_readout=IC50 value_relation_sign== result=12000

###

Molecular target: PIK3CA (human), P42336 [Antiproliferation of MB-MDA-361 Cells with PI3KCA Mutation]
Sequence (P42336 whole entry, looked up, change not shown): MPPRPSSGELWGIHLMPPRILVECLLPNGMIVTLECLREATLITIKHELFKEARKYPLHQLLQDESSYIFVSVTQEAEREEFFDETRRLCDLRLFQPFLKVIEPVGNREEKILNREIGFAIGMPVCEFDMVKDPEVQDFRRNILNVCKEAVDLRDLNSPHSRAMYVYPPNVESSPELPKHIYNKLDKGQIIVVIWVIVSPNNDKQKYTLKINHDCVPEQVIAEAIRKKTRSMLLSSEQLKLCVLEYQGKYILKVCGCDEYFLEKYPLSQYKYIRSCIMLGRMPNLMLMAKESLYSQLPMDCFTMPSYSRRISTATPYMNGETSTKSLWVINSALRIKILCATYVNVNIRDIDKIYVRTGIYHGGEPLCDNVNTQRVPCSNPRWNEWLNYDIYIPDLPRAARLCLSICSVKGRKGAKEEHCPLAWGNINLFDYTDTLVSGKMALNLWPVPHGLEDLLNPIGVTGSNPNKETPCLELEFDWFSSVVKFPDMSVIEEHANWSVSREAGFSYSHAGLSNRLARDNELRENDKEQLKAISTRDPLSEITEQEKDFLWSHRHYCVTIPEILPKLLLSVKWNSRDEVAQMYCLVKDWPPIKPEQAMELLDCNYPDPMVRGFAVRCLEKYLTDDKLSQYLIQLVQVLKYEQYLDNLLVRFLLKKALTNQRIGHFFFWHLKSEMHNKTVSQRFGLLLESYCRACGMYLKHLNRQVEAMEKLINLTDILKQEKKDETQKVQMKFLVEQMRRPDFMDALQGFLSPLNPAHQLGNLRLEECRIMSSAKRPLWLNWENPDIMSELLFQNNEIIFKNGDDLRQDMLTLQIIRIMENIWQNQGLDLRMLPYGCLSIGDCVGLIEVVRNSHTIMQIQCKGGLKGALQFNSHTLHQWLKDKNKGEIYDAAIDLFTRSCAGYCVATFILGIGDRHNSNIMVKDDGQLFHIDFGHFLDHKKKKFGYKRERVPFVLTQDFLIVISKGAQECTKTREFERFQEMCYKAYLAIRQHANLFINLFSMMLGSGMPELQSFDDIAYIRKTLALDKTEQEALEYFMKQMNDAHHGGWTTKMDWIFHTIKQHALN
Test: Antiproliferation of MB-MDA-361 Cells with PI3KCA Mutation
Details: mda-mb-361
TEST_READOUT: IC50

record_smiles=CN(C)CCOc1ccc(NC(=O)Nc2ccc(-c3nc(N4CCOCC4)nc(N4C5CCC4COC5)n3)cc2)cc1 result="< 30 nM"
